Where these numbers come from: patent US7947275B2

biological target: CA-PS-Pool I (predominantly CBG) (Equus caballus, UniProt F7DRS2); experiment: Scatchard analysis of labeled steroid binding to CA-PS-pool I; design: species or system horse; settings: read-out: CA-PS-Pool I Kd; 3H-labeled steroid, 34° C.
Sequence (F7DRS2 23-406): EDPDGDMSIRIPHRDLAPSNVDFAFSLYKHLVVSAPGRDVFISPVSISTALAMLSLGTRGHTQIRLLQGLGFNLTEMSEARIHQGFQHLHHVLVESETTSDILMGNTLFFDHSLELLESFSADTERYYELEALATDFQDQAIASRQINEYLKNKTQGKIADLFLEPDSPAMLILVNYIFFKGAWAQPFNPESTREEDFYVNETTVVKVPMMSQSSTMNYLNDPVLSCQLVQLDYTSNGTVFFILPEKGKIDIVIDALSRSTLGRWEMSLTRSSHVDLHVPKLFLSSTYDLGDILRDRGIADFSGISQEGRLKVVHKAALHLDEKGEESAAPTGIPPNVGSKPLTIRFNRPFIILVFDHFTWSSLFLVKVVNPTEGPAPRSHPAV
parameter: pKd
By convention, pKd is the negative base-10 log of a molar concentration.

Exam item: Tell me reported pKd for CC(=O)[C@H]1CC[C@H]2[C@@H]3CCC4=CC(=O)CC[C@]4(C)[C@H]3CC[C@]12C , tested with CA-PS-Pool I (predominantly CBG) (Equus caballus, UniProt F7DRS2).
Marked response: 8.77

Exam item: Tell me reported pKd for C[C@]12CCC(=O)C[C@@H]1CC[C@@H]1[C@@H]2CC[C@]2(C)[C@@H](O)CC[C@@H]12 [DHT, Dihydrotestosterone] , tested with CA-PS-Pool I (predominantly CBG) (Equus caballus, UniProt F7DRS2).
Marked response: 5.22
